TESTED_TARGET: Progesterone receptor (Homo sapiens) (UniProt P06401)
Sequence (whole entry): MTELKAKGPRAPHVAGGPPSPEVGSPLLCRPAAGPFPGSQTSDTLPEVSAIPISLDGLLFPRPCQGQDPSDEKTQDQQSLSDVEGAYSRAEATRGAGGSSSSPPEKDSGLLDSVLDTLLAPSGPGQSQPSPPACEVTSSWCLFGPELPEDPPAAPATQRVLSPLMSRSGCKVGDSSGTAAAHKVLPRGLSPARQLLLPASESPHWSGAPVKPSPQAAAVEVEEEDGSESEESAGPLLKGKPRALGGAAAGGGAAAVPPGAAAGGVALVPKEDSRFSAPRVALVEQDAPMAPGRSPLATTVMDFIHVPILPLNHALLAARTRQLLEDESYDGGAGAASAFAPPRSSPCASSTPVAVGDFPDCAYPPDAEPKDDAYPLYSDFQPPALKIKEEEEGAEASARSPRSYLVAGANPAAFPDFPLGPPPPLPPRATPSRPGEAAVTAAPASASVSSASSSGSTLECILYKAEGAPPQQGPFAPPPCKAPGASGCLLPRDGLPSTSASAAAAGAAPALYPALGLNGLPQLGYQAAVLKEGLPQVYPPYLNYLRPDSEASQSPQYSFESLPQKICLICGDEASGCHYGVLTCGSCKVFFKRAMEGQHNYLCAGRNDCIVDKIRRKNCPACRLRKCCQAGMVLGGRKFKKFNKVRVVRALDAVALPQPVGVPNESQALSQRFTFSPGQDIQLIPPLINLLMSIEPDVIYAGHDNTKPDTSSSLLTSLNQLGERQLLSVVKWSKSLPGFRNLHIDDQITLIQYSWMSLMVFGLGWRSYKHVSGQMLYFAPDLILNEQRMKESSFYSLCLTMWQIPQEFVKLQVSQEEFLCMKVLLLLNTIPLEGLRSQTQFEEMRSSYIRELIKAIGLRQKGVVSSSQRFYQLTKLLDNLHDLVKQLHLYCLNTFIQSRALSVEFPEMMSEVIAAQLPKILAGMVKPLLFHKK
PROTOCOL_NOTES: Relative Binding affinity(RBA) to human progesterone receptor(PR) compared to PF1092A; (RBA= IC50 of PF1092A/ IC50 of test compound at human PR)
Would you please tag the item condition met when its relative binding affinity (RBA) is 0.08 or above, and condition not met when it is below?

See these solved cases before continuing.
SUBSTANCE_SMILES	CLASS
CC(=O)O[C@H]1[C@@H](O)C=C2C=C3OC(=O)C(C)=C3C[C@]2(C)[C@H]1C	condition met
CO[C@H]1[C@@H](OC(C)=O)CC=C2C=C3OC(=O)C(C)=C3C[C@@]21C	condition met
CC(=O)O[C@H]1CC=C2C=C3OC(=O)C(C)=C3[C@H](C)[C@]2(C)[C@H]1C	condition met

Could you now look at the following compound, please?
Query :: Exam item: decide whether the reported relative binding affinity (RBA) for CC(=O)O[C@H]1CC=C2C(C)=C3OC(=O)C(C)=C3C[C@]2(C)[C@H]1C is at least 0.08.
Result :: condition not met
